Reference source for all entries: ChEMBL document CHEMBL1157539

System: HepG2
MEASUREMENT_PROTOCOL: GSK_TCMDC: Percent inhibition of human HepG2 cell line. Test compounds present at 10uM.
Type: functional
Values of Inhibition strictly less than 10% map to label 1, and values of at least 10% map to label 0.

COMPOUND	LABEL_CLASS
COc1cccc(O)c1CNCC(O)c1cccc(C(F)(F)F)c1 (centres undefined)	label 0
O=C(/C=C/c1ccc(Cl)c(Cl)c1)Nc1cccc(CN2CCC(c3c[nH]c4ccc(O)cc34)CC2)c1	label 0
O=C(NC1CCC(CN2CCC(c3c[nH]c4ccccc34)CC2)CC1)c1csc(-c2cccc(Cl)c2Cl)n1 (centres undefined)	label 0
CCCc1c(C(=O)NC2CCC(CN3CCC(c4c[nH]c5ccccc45)CC3)CC2)cnn1-c1c(Cl)cc(Cl)cc1Cl (centres undefined)	label 0
CCCCCCCc1cc(O)c2c(c1)OC(C)(C)c1ccncc1-2.Cl	label 1
O=C(c1cc(C(=O)NCc2ccc(Cl)cc2)c(=O)n(Cc2ccc(Cl)cc2)c1)c1cc(F)ccc1O	label 1
CC[C@H]1CN2CC[C@H]1C[C@H]2[C@H](O)c1cc(N2CCCC(CO)C2)nc2ccc(OC)cc12 (some centres undefined)	label 0
Cc1cc(C2CCCCN2C)ccc1-c1ccc(C(=O)N2CCc3cc4c(cc32)C2(CCN(C)CC2)CO4)cc1.Cl (centres undefined)	label 0
CCOc1ccc(Br)cc1/C=C/C(=O)Nc1ccc2c(c1)C1CCC2N1C.O=C(O)C(F)(F)F (centres undefined)	label 0

====

compounds and their reported Inhibition
Tested on: HepG2
MEASUREMENT_PROTOCOL: GSK_TCMDC: Percent inhibition of human HepG2 cell line. Test compounds present at 10uM.
Type: functional

COMPOUND	TESTED_ON	VALUE_UNITS	Inhibition
CC[C@H]1CN2CC[C@@H]1C[C@H]2[C@H](O)c1cc(N2CCSCC2)nc2ccc(OC)cc12	HepG2	%	2
O=C(/C=C/c1ccc(Cl)c(Cl)c1)N1CCC2CC(N3CCC(c4c[nH]c5ccccc45)CC3)CCC2C1 (configuration not stated)	HepG2	%	31
O=C(NC1CCC(CN2CCC(c3c[nH]c4ccccc34)CC2)CC1)c1csc(-c2ccc(C(F)(F)F)cc2Cl)n1 (configuration not stated)	HepG2	%	32
CN(c1cc(NC(=O)c2cccs2)ccn1)C1CCN(Cc2cccc(F)c2)CC1.O=C(O)C(F)(F)F	HepG2	%	0
CN(c1cc(NC(=O)c2cccs2)ccn1)C1CCN(Cc2ccccc2)CC1.O=C(O)C(F)(F)F	HepG2	%	0
CCC1CN2CCc3cc(OC)c(OC)cc3C2CC1CC1NCCc2c1[nH]c1ccc(O)cc21 (configuration not stated)	HepG2	%	45
CC(C)CNCc1cccc(-c2cccc(CN(C(=O)NC3CCCCC3)C3CCN(Cc4ccccc4)CC3)c2)c1.O=C(O)C(F)(F)F	HepG2	%	32
O=C(/C=C/c1ccc(Cl)c(Cl)c1)NCCC1CCC(N2CCC(c3c[nH]c4ccccc34)CC2)CC1 (configuration not stated)	HepG2	%	91
O=C(Nc1ccc(Oc2ccccc2)cc1)NC1CCC(CN2CCC(c3c[nH]c4ccccc34)CC2)CC1 (configuration not stated)	HepG2	%	55
S=C(Nc1ccccc1Cl)NC1CCC(CN2CCC(c3c[nH]c4ccccc34)CC2)CC1 (configuration not stated)	HepG2	%	31
C=C[C@H]1CN2CC[C@H]1C[C@H]2[C@H](O)c1cc(-c2ccc(Cl)cc2)nc2ccc(OC)cc12.Cl	HepG2	%	38
CN(C)c1cccc(NC(=O)N[C@H]2N=C(c3ccccc3)c3ccccc3N(CC(=O)N3CCCC3)C2=O)c1	HepG2	%	0
CC(C)CNCc1ccc(-c2cccc(CN(C(=O)Nc3ccccc3)C3CCN(Cc4ccccc4)CC3)c2)cc1.O=C(O)C(F)(F)F	HepG2	%	48
O=C(/C=C/c1ccc(Cl)c(Cl)c1)NCC1CCC(N2CCC(c3c[nH]c4ccccc34)CC2)CC1 (configuration not stated)	HepG2	%	48
COc1ccc(C(=O)C2CC2CN2CC=C(c3c[nH]c4ccc(OC)nc34)CC2)cc1 (configuration not stated)	HepG2	%	8
O=C(O)/C=C\C(=O)O.OC1(c2ccc(Cl)c(C(F)(F)F)c2)CCN(CCOC2c3ccccc3CSc3ccc(Cl)cc32)CC1 (configuration not stated)	HepG2	%	3
CC[C@H]1CN2CC[C@H]1C[C@H]2[C@@H](O)c1cc(OCCCN(C)C)nc2ccc(OC)cc12	HepG2	%	0
